- experimental_target: His-tagged WT1RMF/HLA-A2 complex (human)
- assay_explanation: SPR, Biacore 8K; antibody captured on Protein A chip, His-tagged complex as analyte; 1:1 Langmuir fit
quantity_name: Kd (nM)
Answer with a number only, understood to be in nM.

Report Kd for 4F10-IgG1-SI (antibody, V domains shown, VH and VL joined to IgG1 constant regions with SI mutations (S239D and I332E, EU numbering) in the Fc) VH: QVQLQESGPGLVKPSETLSLTCTVSGGSISNYYWSWIRQPPGKGLEWIGYIYYSGSTNYNPSLKSRVNISVDTSKSQVSLKLNSVIAADTAVYYCARHEDYWYFDLWGRGTLVTVSS VL: DIQLTQSPSSLSASIRDRVTITCRASQDINNYLAWFQQKPGKAPKSLIYAVSSLESGVPSKFSGSGSGTDFTLTISSLQPEDFATYFCQQYNSYPFTFGPGTKVEIK please.
0.43

Source listed as patent US20260152571A1.
